Assay: MTT assay of the effect of NCTD on viability of bone-marrow-derived macrophages
Format: cell-based, mouse
Details: mouse, bone marrow macrophages; MTT, BMMs, 48 h; read-out: concentration from which BMM activity begins to be affected
QUANTITY: MCC at 48 h (µM)
Return type: number; implicit unit µM.

Challenge: Looking for the measured MCC at 48 h of O=C1OC(=O)C2C3CCC(O3)C12 (stereo not shown) [NCTD, 去甲斑蝥素] , can you help?
Response given: 20
